conditionLabel: in isobutanol, 308.15 K
measuredQuantity: solubility (mole fraction)

Q: Input S=c1[nH]c2ccccc2s1 , output reported solubility (mole fraction).
Ans: 0.0311

* * *

conditionLabel: in 1,4-dioxane, 293.15 K
measuredQuantity: solubility (mole fraction)
Lab note: jot down the number only; don't add units.

Q: // Input: S=c1[nH]c2ccccc2s1 . Output its solubility (mole fraction) only.
Ans: 0.0536

* * *

conditionLabel: in isopropanol, 305.65 K
measuredQuantity: solubility (mole fraction)

Q: Assign solubility (mole fraction) to the following record: S=c1[nH]c2ccccc2s1
Ans: 0.0282

* * *

conditionLabel: in ethyl acetate, 313.15 K
measuredQuantity: solubility (mole fraction)
Form: value (number only, do not type unit).

Q: Please indicate solubility (mole fraction) recorded for S=c1[nH]c2ccccc2s1
Ans: 0.0499
